biological target: Serine/threonine-protein kinase 3 (Homo sapiens); note: in the data inactive means no Kd found up to 30 µM
Sequence (Q13188 whole entry): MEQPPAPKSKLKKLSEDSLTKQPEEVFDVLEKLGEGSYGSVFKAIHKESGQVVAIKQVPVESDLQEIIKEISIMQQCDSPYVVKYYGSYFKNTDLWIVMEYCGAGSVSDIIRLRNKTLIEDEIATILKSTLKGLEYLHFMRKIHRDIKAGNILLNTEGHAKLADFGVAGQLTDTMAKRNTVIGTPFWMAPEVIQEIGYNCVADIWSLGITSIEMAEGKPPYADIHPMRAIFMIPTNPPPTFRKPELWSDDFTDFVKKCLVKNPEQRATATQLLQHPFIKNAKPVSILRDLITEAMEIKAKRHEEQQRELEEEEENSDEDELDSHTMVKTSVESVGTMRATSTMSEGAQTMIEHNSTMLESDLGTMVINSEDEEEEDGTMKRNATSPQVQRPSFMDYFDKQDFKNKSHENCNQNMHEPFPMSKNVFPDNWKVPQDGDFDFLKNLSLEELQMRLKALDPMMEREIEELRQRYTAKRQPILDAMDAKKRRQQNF
Activity calls are given as the source filed them.
Result category, one only: Y (active), N (inactive)

Before answering, review these 5 worked examples.
INSERT INTO results (molecule, target_system, group) VALUES
  ('O=c1[nH]c([C@@H]2CCCN2)nc2c1oc1ccc(Cl)cc12', 'Serine/threonine-protein kinase 3 (Homo sapiens)', 'N'),
  ('O=C(NOC[C@H](O)CO)c1ccc(F)c(F)c1Nc1ccc(I)cc1F', 'Serine/threonine-protein kinase 3 (Homo sapiens)', 'N'),
  ('Cc1cc(C(=O)Nc2cc(Oc3ccc4nc(NC(=O)C5CC5)cn4n3)ccc2C)n(C)n1', 'Serine/threonine-protein kinase 3 (Homo sapiens)', 'N'),
  ('NC[C@@](O)(c1ccc(Cl)cc1)c1ccc(-c2cn[nH]c2)cc1', 'Serine/threonine-protein kinase 3 (Homo sapiens)', 'N'),
  ('COc1cc(F)c(F)c(Nc2ccc(I)cc2F)c1NS(=O)(=O)C1(C[C@H](O)CO)CC1', 'Serine/threonine-protein kinase 3 (Homo sapiens)', 'N');

For "CC1(COc2ccc3c(c2)ncn3-c2ccc3cccc(N4CCC(N)CC4)c3n2)COC1" , which call appears in the assay record?
Y

For "S=C(NCc1ccc2c(c1)OCO2)N1CCN(c2ncnc3c2oc2ccccc23)CC1" , which call appears in the assay record?
N

For COc1cc2nccc(Oc3ccc(NC(=O)C4(C(=O)Nc5ccc(F)cc5)CC4)cc3)c2cc1OC [CABOZANTINIB] , which call appears in the assay record?
N

====

target: Tyrosine-protein kinase Fer (Homo sapiens, UniProt P16591); note: in the data inactive means no Kd found up to 30 µM
Sequence (P16591 whole entry): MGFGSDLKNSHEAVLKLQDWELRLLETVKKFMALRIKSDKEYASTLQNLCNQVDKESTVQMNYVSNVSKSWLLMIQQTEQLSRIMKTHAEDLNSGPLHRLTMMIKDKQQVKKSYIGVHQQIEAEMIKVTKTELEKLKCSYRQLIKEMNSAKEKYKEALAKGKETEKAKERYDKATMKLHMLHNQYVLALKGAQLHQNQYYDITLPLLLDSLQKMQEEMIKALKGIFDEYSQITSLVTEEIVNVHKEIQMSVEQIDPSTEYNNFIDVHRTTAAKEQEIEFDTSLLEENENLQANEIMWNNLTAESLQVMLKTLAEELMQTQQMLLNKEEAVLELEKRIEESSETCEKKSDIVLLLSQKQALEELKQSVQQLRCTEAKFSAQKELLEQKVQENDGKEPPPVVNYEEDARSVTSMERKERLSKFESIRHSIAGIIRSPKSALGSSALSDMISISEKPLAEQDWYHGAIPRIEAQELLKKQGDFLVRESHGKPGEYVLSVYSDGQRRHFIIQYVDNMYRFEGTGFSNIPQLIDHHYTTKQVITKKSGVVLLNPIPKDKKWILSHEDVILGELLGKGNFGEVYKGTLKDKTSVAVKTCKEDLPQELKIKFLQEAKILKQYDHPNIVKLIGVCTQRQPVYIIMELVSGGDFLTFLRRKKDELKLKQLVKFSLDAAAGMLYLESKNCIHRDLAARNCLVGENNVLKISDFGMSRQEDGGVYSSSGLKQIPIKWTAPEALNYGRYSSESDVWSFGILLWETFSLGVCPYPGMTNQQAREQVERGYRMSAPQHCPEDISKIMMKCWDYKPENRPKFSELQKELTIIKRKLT
Calls of active or inactive are those of the source.
Result category, one only: active, inactive

INSERT INTO assay_data (sample_smiles, group) VALUES
  ('COc1cccc(Nc2ncnn3ccc(CN4CC[C@@H](N)[C@H](O)C4)c23)c1', 'inactive');

For "CC[C@@](C)(Nc1ccnc(-c2c[nH]c3ncccc23)n1)C(=O)NCC(F)(F)F" , which call appears in the assay record?
inactive

For "NC[C@@](O)(c1ccc(Cl)cc1)c1ccc(-c2cn[nH]c2)cc1" , which call appears in the assay record?
inactive

For "CCc1cc2c(cc1N1CCC(N3CCOCC3)CC1)C(C)(C)c1[nH]c3cc(C#N)ccc3c1C2=O" , which call appears in the assay record?
active

For "C#Cc1cccc(Nc2ncnc3cc4c(cc23)OCCOCCOCCO4)c1" , which call appears in the assay record?
inactive

For "C=CC(=O)Nc1cccc(Nc2nc(Nc3ccc(N4CCN(C(C)=O)CC4)cc3OC)ncc2C(F)(F)F)c1" , which call appears in the assay record?
active

====

molecular target: Receptor-interacting serine/threonine-protein kinase 2 (Homo sapiens, UniProt O43353); note: in the data inactive means no Kd found up to 30 µM
Sequence (O43353 whole entry): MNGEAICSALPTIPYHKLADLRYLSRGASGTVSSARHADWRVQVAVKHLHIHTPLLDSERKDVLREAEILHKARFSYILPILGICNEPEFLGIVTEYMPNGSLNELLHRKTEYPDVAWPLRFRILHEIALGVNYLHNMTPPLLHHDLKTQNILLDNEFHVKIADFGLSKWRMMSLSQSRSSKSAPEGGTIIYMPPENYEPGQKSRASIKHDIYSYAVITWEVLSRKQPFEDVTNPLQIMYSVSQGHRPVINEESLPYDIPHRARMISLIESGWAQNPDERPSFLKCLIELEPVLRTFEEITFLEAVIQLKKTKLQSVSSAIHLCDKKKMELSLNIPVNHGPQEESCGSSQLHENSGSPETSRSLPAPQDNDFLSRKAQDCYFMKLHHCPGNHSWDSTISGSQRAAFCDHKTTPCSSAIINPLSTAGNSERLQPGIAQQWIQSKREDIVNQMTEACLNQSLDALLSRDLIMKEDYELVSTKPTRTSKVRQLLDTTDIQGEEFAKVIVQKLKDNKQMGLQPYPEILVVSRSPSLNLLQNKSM
Active and inactive are the calls of the source.
Result category, one only: active, inactive

INSERT INTO results (compound, target_system, group) VALUES
  ('CCc1nc(C(N)=O)c(Nc2ccc(N3CCC(N4CCN(C)CC4)CC3)c(OC)c2)nc1NC1CCOCC1', 'Receptor-interacting serine/threonine-protein kinase 2 (Homo sapiens, UniProt O43353)', 'active'),
  ('Cc1cc(Nc2nc(N[C@@H](C)c3ncc(F)cn3)ncc2Cl)n[nH]1', 'Receptor-interacting serine/threonine-protein kinase 2 (Homo sapiens, UniProt O43353)', 'inactive');

Consider now this further compound.
For COc1cc2nccc(Oc3ccc(NC(=O)C4(C(=O)Nc5ccc(F)cc5)CC4)cc3)c2cc1OC [CABOZANTINIB] , which call appears in the assay record?
active

====

Activity calls are given as the source filed them.
Dear all, this message contains Kd results, target or system Interleukin-1 receptor-associated kinase 3 (Homo sapiens, UniProt Q9Y616). Note: in the data inactive means no Kd found up to 30 µM.

Answered examples (3):
INSERT INTO results (compound, target_system, value) VALUES
  ('CNC(=O)c1ccc(Nc2ncc(C(F)(F)F)c(NCc3nccnc3N(C)S(C)(=O)=O)n2)cc1', 'Interleukin-1 receptor-associated kinase 3 (Homo sapiens, UniProt Q9Y616)', '> 30 µM (inactive)'),
  ('COc1ccc2c(OCc3nnc4ccc(-c5ccccc5)nn34)ccnc2c1', 'Interleukin-1 receptor-associated kinase 3 (Homo sapiens, UniProt Q9Y616)', '> 30 µM (inactive)'),
  ('COc1ccc(-c2ccc3ncc4c(c3c2)n(-c2ccc(N3CCNCC3)c(C(F)(F)F)c2)c(=O)n4C)cn1 [BGT-226 FREE BASE]', 'Interleukin-1 receptor-associated kinase 3 (Homo sapiens, UniProt Q9Y616)', '> 30 µM (inactive)');

# lookup: Interleukin-1 receptor-associated kinase 3 (Homo sapiens, UniProt Q9Y616) Kd, key = "CC1(COc2ccc3c(c2)ncn3-c2ccc3cccc(N4CCC(N)CC4)c3n2)COC1"
# Sequence (Q9Y616 whole entry): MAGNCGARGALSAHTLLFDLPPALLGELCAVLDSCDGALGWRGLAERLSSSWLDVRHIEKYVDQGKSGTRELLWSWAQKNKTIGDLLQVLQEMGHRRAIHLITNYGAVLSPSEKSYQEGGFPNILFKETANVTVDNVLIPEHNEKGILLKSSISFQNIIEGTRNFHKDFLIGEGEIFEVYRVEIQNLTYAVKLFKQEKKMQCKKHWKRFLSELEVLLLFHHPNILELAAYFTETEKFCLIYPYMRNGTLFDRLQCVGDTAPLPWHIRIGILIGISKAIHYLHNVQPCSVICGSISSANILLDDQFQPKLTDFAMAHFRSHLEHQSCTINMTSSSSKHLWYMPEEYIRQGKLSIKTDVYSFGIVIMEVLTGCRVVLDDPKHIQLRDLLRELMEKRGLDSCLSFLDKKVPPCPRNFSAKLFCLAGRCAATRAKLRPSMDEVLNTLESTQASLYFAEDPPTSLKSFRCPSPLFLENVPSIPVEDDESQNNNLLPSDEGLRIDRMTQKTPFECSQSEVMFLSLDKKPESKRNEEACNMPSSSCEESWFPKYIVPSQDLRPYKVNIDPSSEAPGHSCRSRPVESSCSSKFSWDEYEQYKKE
1.51 µM (active)

====

Kd: recorded values
molecular target: Casein kinase I isoform epsilon (Homo sapiens, UniProt P49674); note: in the data inactive means no Kd found up to 30 µM
Sequence (P49674 whole entry, canonical isoform): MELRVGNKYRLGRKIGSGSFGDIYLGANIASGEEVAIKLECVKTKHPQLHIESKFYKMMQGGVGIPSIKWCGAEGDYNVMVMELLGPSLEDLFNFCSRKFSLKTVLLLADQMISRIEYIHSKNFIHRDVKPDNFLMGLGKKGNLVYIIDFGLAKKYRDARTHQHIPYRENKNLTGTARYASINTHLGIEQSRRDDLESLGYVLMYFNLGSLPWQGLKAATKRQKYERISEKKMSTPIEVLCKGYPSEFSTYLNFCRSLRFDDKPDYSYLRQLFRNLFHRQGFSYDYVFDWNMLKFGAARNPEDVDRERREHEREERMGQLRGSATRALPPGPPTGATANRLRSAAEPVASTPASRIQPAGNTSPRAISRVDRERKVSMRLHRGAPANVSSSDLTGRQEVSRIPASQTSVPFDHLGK
Calls of active or inactive are those of the source.

INSERT INTO measurements (molecule, value) VALUES
  ('O=C(NC[C@H](O)CO)c1ccncc1Nc1ccc(I)cc1F [PIMASERTIB]', '> 30 µM (inactive)');

Indicate its recorded Kd; the molecule in question is COc1cc2ncnc(Nc3ccc(O)cc3)c2cc1OC [WHI-P131]
> 30 µM (inactive)

Indicate its recorded Kd; the molecule in question is Cc1ccc(C(=O)Nc2ccc(Oc3cc4cnn(C)c4cc3-c3cn[nH]c3)c(F)c2)c(=O)n1-c1ccc(F)cc1 [MERESTINIB]
> 30 µM (inactive)

Indicate its recorded Kd; the molecule in question is O[C@H]1CC[C@H](Nc2ncc3nc(Nc4c(F)cc(F)cc4F)n([C@H]4CCOC4)c3n2)CC1 [TANZISERTIB]
> 30 µM (inactive)

Indicate its recorded Kd; the molecule in question is COc1cc(F)c(F)c(Nc2ccc(I)cc2F)c1NS(=O)(=O)C1(C[C@H](O)CO)CC1 [REFAMETINIB]
> 30 µM (inactive)

Indicate its recorded Kd; the molecule in question is Cc1c(Cn2c(C)nc3c(C(=O)O)cc(N4CCOCC4)cc32)cccc1C(F)(F)F [GSK-2636771]
> 30 µM (inactive)

Indicate its recorded Kd; the molecule in question is NC[C@@](O)(c1ccc(Cl)cc1)c1ccc(-c2cn[nH]c2)cc1 [AT-13148]
> 30 µM (inactive)

Indicate its recorded Kd; the molecule in question is CNC(=O)c1cc(COc2nnc(Nc3ccc(Cl)cc3)c3ccoc23)ccn1 [TELATINIB]
> 30 µM (inactive)

Indicate its recorded Kd; the molecule in question is Cc1cc(C(=O)Nc2cc(Oc3ccc4nc(NC(=O)C5CC5)cn4n3)ccc2C)n(C)n1 [TAK-593]
> 30 µM (inactive)

Indicate its recorded Kd; the molecule in question is Cc1cc(-c2cc(OC(=O)c3ccccc3)ccc2Cl)cc2nnc(Nc3ccc(OCCN4CCCC4)cc3)nc12 [TG100-801]
> 30 µM (inactive)

Indicate its recorded Kd; the molecule in question is COCCN1CCN(Cc2ccc(-c3n[nH]c4c3C(=O)c3c(NC(=O)NN5CCOCC5)cccc3-4)cc2)CC1 [RGB-286638]
> 30 µM (inactive)

Indicate its recorded Kd; the molecule in question is CC(C)(O)CC(=O)NCCn1ccc2ncnc(Nc3ccc(Oc4cccc(C(F)(F)F)c4)c(Cl)c3)c21 [TAK-285]
> 30 µM (inactive)

Indicate its recorded Kd; the molecule in question is C[C@@H]1COC(Nc2ccc3ncnc(Nc4ccc(OCc5nccs5)c(Cl)c4)c3c2)=N1 [VARLITINIB]
> 30 µM (inactive)

Indicate its recorded Kd; the molecule in question is COc1cc2nccc(Oc3ccc(NC(=O)C4(C(=O)Nc5ccc(F)cc5)CC4)cc3)c2cc1OC [CABOZANTINIB]
> 30 µM (inactive)

====

Target: Serine/threonine-protein kinase TAO3 (Homo sapiens); note: in the data inactive means no Kd found up to 30 µM
Sequence (Q9H2K8 whole entry): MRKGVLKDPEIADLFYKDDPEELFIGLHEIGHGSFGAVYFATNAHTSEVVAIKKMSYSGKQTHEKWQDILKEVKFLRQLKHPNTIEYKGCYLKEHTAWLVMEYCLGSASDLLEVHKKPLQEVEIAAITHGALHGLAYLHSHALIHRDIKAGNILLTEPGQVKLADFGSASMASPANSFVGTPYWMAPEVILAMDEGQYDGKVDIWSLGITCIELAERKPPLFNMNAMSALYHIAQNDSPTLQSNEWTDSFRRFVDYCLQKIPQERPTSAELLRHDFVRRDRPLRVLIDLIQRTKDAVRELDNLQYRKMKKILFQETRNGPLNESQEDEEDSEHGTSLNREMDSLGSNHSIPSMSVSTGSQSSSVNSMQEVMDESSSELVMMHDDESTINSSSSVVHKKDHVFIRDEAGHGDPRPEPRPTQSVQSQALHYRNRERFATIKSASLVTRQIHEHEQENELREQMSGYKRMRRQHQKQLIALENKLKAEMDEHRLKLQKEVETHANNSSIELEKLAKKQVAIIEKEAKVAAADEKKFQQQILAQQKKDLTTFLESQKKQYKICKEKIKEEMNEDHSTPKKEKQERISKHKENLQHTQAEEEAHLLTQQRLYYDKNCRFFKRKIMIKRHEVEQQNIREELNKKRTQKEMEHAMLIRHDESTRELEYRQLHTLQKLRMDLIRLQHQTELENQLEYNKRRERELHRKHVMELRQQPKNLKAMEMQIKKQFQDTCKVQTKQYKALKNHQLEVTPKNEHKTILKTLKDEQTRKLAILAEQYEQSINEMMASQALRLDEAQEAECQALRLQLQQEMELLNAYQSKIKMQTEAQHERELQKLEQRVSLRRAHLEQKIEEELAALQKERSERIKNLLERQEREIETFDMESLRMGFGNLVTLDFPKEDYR
The source made the active and inactive calls.
Result category, one only: y (active), n (inactive)

INSERT INTO assay_data (sample_smiles, group) VALUES
  ('O=C(O)c1ccc2c(c1)nc(Nc1cccc(Cl)c1)c1ccncc12', 'n');

Consider now this further compound.
For "FC(F)(F)c1ccc(CNc2ccc(Cc3c[nH]c4ncc(Cl)cc34)cn2)cn1" , which call appears in the assay record?
n

All values here come from ChEMBL document CHEMBL3991601.
